Please provide measured TGI for the entries that follow.
- System: RPMI-8226 leukemia
- protocol_notes: NCI tumour cell line growth inhibition, 48 h

Which TGI reading was recorded for the compound Cc1[nH]c(=O)[nH]c(=O)c1/C=C/C(=O)O (tested in a mixture with another compound) ?
> 625 µM

Bench note: what TGI did Cc1c(C)c(C)c(Cn2[nH]c(=O)n(C)c2=O)c(C)c1C show?
> 100 µM

Given the entry Cc1c(-c2ccc(C3CCCCC3)cc2)nc2ccc(F)cc2c1C(=O)O , report its measured TGI.
> 100 µM

Give the measured TGI of CNC(=O)NCNC(=O)NC .
> 100 µM

I'd like to know its TGI. The compound in question is CCCNC(=S)N/N=C(\C)c1ccc(S(=O)(=O)N(C)c2ccccc2)cc1
> 31.6 µM

Entry Nc1c(C(=O)Nc2ccccc2)sc2nc3c(cc12)CCCCC3 : reported TGI = ?
14.3 µM

Can you look up the measured TGI of C=C1CC2(CC(c3ccccc3Cl)OC(c3ccccc3Cl)C2)OC1=O (centres undefined) for me?
3.84 µM

State the recorded TGI for this entry: O=C1/C(=C/c2ccccc2)CN(C(=O)C(Cl)Cl)C/C1=C\c1ccccc1
0.278 µM

Return reported TGI; argument: O=C1C(=C(C(F)(F)Cl)C(F)(F)Cl)C2CCC1C2 (centres undefined)
> 3.16 µM

TGI lookup needed for COc1ccc(C=Nc2c(C(=O)Nc3cccc(Cl)c3C)sc3nc(C)c(C(=O)/C=C/c4ccc(OC)cc4)cc23)cc1 , thanks.
> 50 µM

# query: TGI of entry NS(=O)(=O)c1nnc(NC(=O)C23CC4CC(CC(C4)C2)C3)s1
> 100 µM

# lookup: TGI of CC(=O)Oc1cc(S(=O)(=O)Nc2n[nH]c(Nc3ccc(C)cc3)n2)c(S)cc1Cl
> 100 µM

Item under review: CSC1NC(c2ccccc2)=C(C#N)C(=O)N1C1OCC(OC(C)=O)C(OC(C)=O)C1OC(C)=O (centres undefined) . Reported TGI?
> 100 µM

Need TGI, item BrC(Br)=C1C(=C(Br)Br)C(Br)C1Br (centres undefined)
1.14 µM

Data request, read-out TGI, for O=C1C(Cl)=C(Nc2ccc(Nc3ccccc3)c(NC3=C(Cl)C(=O)c4ccccc4C3=O)c2)C(=O)c2ccccc21
> 100 µM

What TGI value was documented for this compound, S=C(NCCc1ccccn1)N/N=C/c1ccccn1 ?
0.186 µM

# get_value(readout='TGI', item= C=CCN1/C(=C(\C#N)c2nc3ccccc3[nH]2)Sc2c1nc[nH]c2=O )
> 100 µM

What value of TGI has been reported for the following compound? COc1cccc(/C=C/C(=O)c2ccc(SC)cc2)c1OC
> 100 µM

Please look up its TGI: C1CSCCSCCCSC2CCCCC2SC1 (centres undefined)
> 100 µM

May I ask what TGI has been recorded for CN(CCCCCl)P(=O)(OCCS(=O)(=O)CC(NC(=O)CCC(N)C(=O)O)C(=O)NC(C(=O)O)c1ccccc1)OCC1OC(n2ccc(N)nc2=O)C(O)C1O (centres undefined) ?
> 68.8 µM

TGI lookup needed for O=c1oc2ccc(I)cc2c(=O)n1-c1ccc(F)cc1F , thanks.
4.83 µM

So what does the record say about TGI for CC1(C)S[C@@H]2[C@H](N3C(=O)c4ccccc4C3=O)CN2[C@H]1NC(=O)N[C@@H]1N2C[C@@H](N3C(=O)c4ccccc4C3=O)[C@H]2SC1(C)C ?
> 100 µM

For the compound shown here, CN(CC(=O)O)c1ncc2c(n1)C=CCC2 , give the reported TGI.
> 100 µM

Can you share its TGI? I mean this compound: O=C(CCl)NCCNc1nccc(Nc2ccc(S(=O)(=O)Nc3ccccn3)cc2)n1
7.6 µM

Fill in: TGI of CCCCCCCCCCCCCCCCCc1nccn1CCOCCO is ___
10.9 µg/mL

For CCOC(=O)NN(C(=O)OCC)C(C(=O)C1=CCCCC1)N(NC(=O)OCC)C(=O)OCC , what is its reported TGI?
> 100 µM

Item COc1cc(C2c3cc4c(cc3[C@@H](Nc3cccc(CO)c3)C3COC(=O)[C@H]23)OCO4)cc(OC)c1O (some centres undefined) has what recorded TGI?
2.12 µM

So what's the measured TGI for this one? Cc1nc(SCC(=O)Nc2ccc(Cl)cc2)c2sc(=S)n(-c3ccccc3)c2n1
> 10 µM

Bench note: what TGI did CCOC(=O)C(=O)Nc1nc2c(OCC)cccc2s1 show?
> 100 µM

Look up TGI for this compound: CCOC(=O)/C=C(\C(=O)OCC)n1ccc(=O)n(Cc2cnnn2CCCCOC(C)=O)c1=O
> 22.5 µM

Would you mind telling me what TGI value was observed for CSC(=NC#N)S/C=C/C(=O)c1ccccc1 ?
34.7 µM

Entry CC/C=C\C[C@H](F)C/C=C1/C(=O)C=C[C@@H]1C/C=C\CCCC(=O)OC : reported TGI = ?
5.49 µM

Any idea what TGI was measured for O=C(Nc1ccc(Cc2ccccc2)cc1)Nc1nn(C(=O)Nc2ccc(Cc3ccccc3)cc2)c2ccccc12 ?
> 100 µM

Item under review: N/N=C1\C(=O)N(Cc2ccccc2)C(=O)C1C(=O)NCc1ccccc1 (centres undefined) . Reported TGI?
> 100 µM

Dear colleague, I am looking for the recorded TGI of the following compound: COc1cc(-c2nccc3cc(OC)c(OC)cc23)ccc1O
> 100 µM

For COc1cc(Oc2c(C)c(Cl)c(OC)c(Cl)c2OC)c2c(c1Cl)COC2=O , what is its reported TGI?
13.1 µM

Consider the compound Cc1n[nH]c(=S)n(C)c1=S and give its measured TGI.
> 100 µM

Recorded TGI of CCCCN1CCCC[C@@H]1C(=O)N[C@H](C(=O)N(C)[C@H](C[C@@H](OC(C)=O)c1nc(C(=O)NC2CCC(C(=O)OC)CC2)cs1)C(C)C)C(C)C (some centres undefined) , please.
> 25 µM

What does the record list as TGI for Cc1cccc(-n2c(N)c(-c3nc4ccccc4[nH]3)sc2=S)c1 ?
57.4 µM
